Overview of recorded EC50 for various molecules
Molecular target: Metabotropic glutamate receptor 4 (Rattus norvegicus)
Sequence (P31423 whole entry): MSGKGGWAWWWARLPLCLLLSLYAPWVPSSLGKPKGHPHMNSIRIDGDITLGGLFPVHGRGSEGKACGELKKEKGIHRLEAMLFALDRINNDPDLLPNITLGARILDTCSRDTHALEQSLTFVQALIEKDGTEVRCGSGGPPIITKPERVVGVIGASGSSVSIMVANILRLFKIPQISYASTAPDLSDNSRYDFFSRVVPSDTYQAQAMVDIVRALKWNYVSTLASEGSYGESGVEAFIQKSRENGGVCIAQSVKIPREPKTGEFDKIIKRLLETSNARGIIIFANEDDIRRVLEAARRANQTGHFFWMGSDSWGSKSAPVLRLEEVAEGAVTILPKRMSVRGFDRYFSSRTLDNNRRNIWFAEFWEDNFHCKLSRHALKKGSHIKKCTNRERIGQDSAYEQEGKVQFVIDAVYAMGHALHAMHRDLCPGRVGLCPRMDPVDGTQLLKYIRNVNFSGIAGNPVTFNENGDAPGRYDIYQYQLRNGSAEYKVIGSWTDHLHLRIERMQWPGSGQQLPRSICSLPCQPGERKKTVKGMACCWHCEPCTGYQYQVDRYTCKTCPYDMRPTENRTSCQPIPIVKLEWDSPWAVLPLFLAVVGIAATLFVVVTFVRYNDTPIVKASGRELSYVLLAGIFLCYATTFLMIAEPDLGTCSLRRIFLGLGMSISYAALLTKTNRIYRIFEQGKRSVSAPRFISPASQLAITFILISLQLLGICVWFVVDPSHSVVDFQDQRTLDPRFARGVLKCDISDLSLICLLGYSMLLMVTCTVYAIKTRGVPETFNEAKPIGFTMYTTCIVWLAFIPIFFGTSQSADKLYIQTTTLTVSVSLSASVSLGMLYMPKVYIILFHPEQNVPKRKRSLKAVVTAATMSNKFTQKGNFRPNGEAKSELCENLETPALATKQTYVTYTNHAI
Experiment: Agonist activity at rat mGlu4 receptor expressed in HEK293 cells co-transfected with G-protein alpha and EAAC1 assessed as increase in intracellular inositol phosphate accumulation after 1 hr by scintillation counting
Format: functional, cell-based
Reply with the number, then its unit.

A selection of reference data follows.
- Molecule: "CC(CP(=O)(O)CC[C@H](N)C(=O)O)C(=O)O (some centres undefined)"
  Assay Value: "12.1 µM"
- Molecule: "NC(CCP(=O)(O)CCC(=O)O)C(=O)O (racemic)"
  Assay Value: "7.1 µM"
- Molecule: "N[C@@H](CCP(=O)(O)CCCC(=O)O)C(=O)O"
  Assay Value: "11.4 µM"
- Molecule: "N[C@@H](CCP(=O)(O)C(CC(=O)O)CC(=O)O)C(=O)O"
  Assay Value: "114 µM"
- Molecule: "N[C@@H](CCP(=O)(O)O)C(=O)O"
  Assay Value: "0.096 µM"
- Molecule: "N[C@@H](CCP(=O)(O)C(O)C1CC1C(=O)O)C(=O)O (single isomer, unassigned)"
  Assay Value: "18 µM"
- Molecule: "N[C@@H](CCP(=O)(O)CC(Cl)C(=O)O)C(=O)O (some centres undefined)"
  Assay Value: "3.8 µM"
- Molecule: "N[C@@H](CCP(=O)(O)/C=C/C(=O)O)C(=O)O"
  Assay Value: "3 µM"

Would you kindly look at the next entry?
Respond only with EC50 recorded for NC(CCP(=O)(O)C(CC(=O)O)C(=O)O)C(=O)O (centres undefined) 47 µM

---

Overview of recorded pEC50 for various molecules
Target: UniProt:P31423
Test: Agonist activity at rat mGlu4 receptor expressed in HEK293 cells co-transfected with G-protein alpha and EAAC1 assessed as increase in intracellular calcium level after 1 hr by fluorescence microplate reader
Assay type: functional, cell-based
Worth noting: pEC50 values are minus log10 of concentrations stated in mol/L.

A selection of reference data follows.
- Molecule: "N[C@@H](CCP(=O)(O)C(O)C(=O)O)C(=O)O (some centres not stated)"
  Tgt: "UniProt:P31423"
  pEC50: 5.14
- Molecule: "N[C@@H](CCC[PH](=O)O)C(=O)O"
  Tgt: "UniProt:P31423"
  pEC50: 3.68
- Molecule: "N[C@@H](CCP(=O)(O)CC(CC(=O)O)C(=O)O)C(=O)O (some centres not stated)"
  Tgt: "UniProt:P31423"
  pEC50: 5.62
- Molecule: "N[C@@H](CCP(=O)(O)CC(CCO)C(=O)O)C(=O)O (some centres not stated)"
  Tgt: "UniProt:P31423"
  pEC50: 4.70
- Molecule: "N[C@@H](CCP(=O)(O)CC1CCOC1=O)C(=O)O (some centres not stated)"
  Tgt: "UniProt:P31423"
  pEC50: 3.91

Respond only with pEC50 recorded for N[C@@H](CCP(=O)(O)CC(Cl)C(=O)O)C(=O)O (some centres not stated) 6.00

Respond only with pEC50 recorded for N[C@@H](CCP(=O)(O)CCC(=O)O)C(=O)O 5.21

Respond only with pEC50 recorded for N[C@@H](CCP(=O)(O)O)C(=O)O 6.89

Respond only with pEC50 recorded for N[C@@H](CCP(=O)(O)/C=C/C(=O)O)C(=O)O 6.00

Respond only with pEC50 recorded for N[C@@H](CCP(=O)(O)CC(=O)O)C(=O)O 5.13

Respond only with pEC50 recorded for N[C@@H](CCP(=O)(O)C1COC(=O)C1)C(=O)O (some centres not stated) 3.85

Respond only with pEC50 recorded for N[C@@H](CCP(=O)(O)CCCC(=O)O)C(=O)O 5.07

---

Biological target: Metabotropic glutamate receptor 8 (Rattus norvegicus)
Sequence (P70579 whole entry): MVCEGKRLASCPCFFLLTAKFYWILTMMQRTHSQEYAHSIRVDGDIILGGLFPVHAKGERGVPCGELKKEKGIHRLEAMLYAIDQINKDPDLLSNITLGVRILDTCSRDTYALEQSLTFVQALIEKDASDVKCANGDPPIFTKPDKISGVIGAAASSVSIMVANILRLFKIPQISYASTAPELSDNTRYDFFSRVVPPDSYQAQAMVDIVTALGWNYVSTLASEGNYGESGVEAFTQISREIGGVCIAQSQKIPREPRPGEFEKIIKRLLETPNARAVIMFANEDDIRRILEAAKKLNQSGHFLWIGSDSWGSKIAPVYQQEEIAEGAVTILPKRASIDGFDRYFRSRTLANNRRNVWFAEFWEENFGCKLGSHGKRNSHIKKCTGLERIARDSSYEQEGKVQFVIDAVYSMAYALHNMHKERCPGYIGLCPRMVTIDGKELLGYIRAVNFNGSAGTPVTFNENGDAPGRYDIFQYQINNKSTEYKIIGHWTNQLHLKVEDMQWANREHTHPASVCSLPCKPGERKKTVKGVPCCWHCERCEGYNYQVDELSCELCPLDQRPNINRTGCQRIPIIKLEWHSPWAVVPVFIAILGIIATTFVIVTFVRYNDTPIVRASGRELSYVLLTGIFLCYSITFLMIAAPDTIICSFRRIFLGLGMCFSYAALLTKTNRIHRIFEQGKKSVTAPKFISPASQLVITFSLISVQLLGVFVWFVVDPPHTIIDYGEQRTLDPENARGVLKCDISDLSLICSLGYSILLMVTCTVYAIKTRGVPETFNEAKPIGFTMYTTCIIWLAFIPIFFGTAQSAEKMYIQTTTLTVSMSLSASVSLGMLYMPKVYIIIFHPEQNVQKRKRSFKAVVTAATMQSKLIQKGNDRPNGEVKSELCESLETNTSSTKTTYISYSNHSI
Test: Agonist activity at rat mGlu8 receptor expressed in HEK293 cells co-transfected with G-protein alpha and EAAC1 assessed as increase in intracellular inositol phosphate accumulation after 1 hr by scintillation counting
Assay type: functional, cell-based
Measured Endpoint: EC50 (µM)
API: value field is a number in µM; no unit string.

A selection of reference data follows.
- Compound: "N[C@@H](CCP(=O)(O)CCCC(=O)O)C(=O)O"
  Tgt: "Metabotropic glutamate receptor 8 (Rattus norvegicus)"
  EC50 [µM]: 19
- Compound: "N[C@@]1(C(=O)O)C[C@H](C(=O)O)[C@H](C(=O)O)C1"
  Tgt: "Metabotropic glutamate receptor 8 (Rattus norvegicus)"
  EC50 [µM]: 5.1
- Compound: "N[C@@H](CCP(=O)(O)CCC(=O)O)C(=O)O"
  Tgt: "Metabotropic glutamate receptor 8 (Rattus norvegicus)"
  EC50 [µM]: 7.8

Respond only with EC50 recorded for CC(CP(=O)(O)CC[C@H](N)C(=O)O)C(=O)O (stereo partly drawn) 53

Respond only with EC50 recorded for N[C@@H](CCP(=O)(O)C(O)C1CC1C(=O)O)C(=O)O (single isomer, unassigned) 91

Respond only with EC50 recorded for N[C@@H](CCP(=O)(O)O)C(=O)O 0.24

---

Target: UniProt P31421
Assay: Agonist activity at rat mGlu2 receptor expressed in HEK293 cells assessed as increase in intracellular calcium level after 1 hr by fluorescence microplate reader
# note: exactly 50 µM is not below, so it is label 0; use label 1 for EC50 strictly under it

- Molecule: "N[C@@H](CCP(=O)(O)/C=C/C(=O)O)C(=O)O"
  Class: "label 1"
- Molecule: "N[C@H](C(=O)O)C1[C@@H](C(=O)O)[C@@H]1C(=O)O (stereo not given in full)"
  Class: "label 1"
- Molecule: "NC(CCP(=O)(O)CCC(=O)O)C(=O)O (racemic)"
  Class: "label 0"

Consider the record given below.
Is the reported EC50 for N[C@@H](CCP(=O)(O)CC(=O)O)C(=O)O strictly below 50 µM? label 0

---

Target: UniProt P31423
Test: Agonist activity at rat mGlu4 receptor expressed in HEK293 cells co-transfected with G-protein alpha and EAAC1 assessed as increase in intracellular inositol phosphate accumulation at 100 uM after 1 hr by scintillation counting
Assay type: functional, cell-based
Activity calls are given as the source filed them. The rule behind the calls is not given here.

- Compound: "NC(CP(=O)(O)CCC(=O)O)C(=O)O (centres undefined)"
  Activity: "inactive"
- Compound: "NC(CCP(=O)(O)CCCCC(=O)O)C(=O)O (centres undefined)"
  Activity: "inactive"
- Compound: "N[C@@H](CCP(=O)(O)C(CC(=O)O)CP(=O)(O)O)C(=O)O (some centres undefined)"
  Activity: "33%"
- Compound: "C/C(=C\\C(=O)O)C(O)P(=O)(O)CC[C@H](N)C(=O)O (some centres undefined)"
  Activity: "inactive"

---

Biological target: Metabotropic glutamate receptor 6 (Rattus norvegicus)
Sequence (P35349 whole entry): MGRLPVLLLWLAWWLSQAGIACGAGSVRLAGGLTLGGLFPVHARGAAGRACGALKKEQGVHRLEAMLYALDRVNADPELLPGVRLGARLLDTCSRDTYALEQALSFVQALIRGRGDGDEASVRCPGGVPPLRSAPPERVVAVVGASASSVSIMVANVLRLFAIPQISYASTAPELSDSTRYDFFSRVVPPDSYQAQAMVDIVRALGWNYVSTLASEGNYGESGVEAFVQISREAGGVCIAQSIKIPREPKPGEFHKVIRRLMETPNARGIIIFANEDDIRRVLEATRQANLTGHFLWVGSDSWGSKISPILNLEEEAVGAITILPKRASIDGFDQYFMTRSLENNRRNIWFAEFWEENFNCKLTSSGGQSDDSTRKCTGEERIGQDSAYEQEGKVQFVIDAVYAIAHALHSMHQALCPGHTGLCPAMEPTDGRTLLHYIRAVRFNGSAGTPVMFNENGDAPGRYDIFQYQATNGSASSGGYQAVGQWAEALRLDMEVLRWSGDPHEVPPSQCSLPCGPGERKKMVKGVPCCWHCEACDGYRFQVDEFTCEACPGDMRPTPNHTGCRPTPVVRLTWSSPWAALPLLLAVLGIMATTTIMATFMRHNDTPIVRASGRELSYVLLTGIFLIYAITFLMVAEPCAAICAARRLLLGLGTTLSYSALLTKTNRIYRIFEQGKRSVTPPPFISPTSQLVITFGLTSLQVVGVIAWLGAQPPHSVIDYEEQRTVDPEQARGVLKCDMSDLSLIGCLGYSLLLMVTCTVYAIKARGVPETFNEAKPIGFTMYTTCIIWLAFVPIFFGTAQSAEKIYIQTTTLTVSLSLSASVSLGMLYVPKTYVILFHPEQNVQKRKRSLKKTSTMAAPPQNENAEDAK
Test: Agonist activity at rat mGlu6 receptor expressed in HEK293 cells co-transfected with G-protein alpha and EAAC1 assessed as increase in intracellular calcium level after 1 hr by fluorescence microplate reader
Type: functional, cell-based
Measured Endpoint: pEC50
Worth noting: pEC50 values are minus log10 of concentrations stated in mol/L.

- Compound: "N[C@@H](CCP(=O)(O)CCC(=O)O)C(=O)O"
  Tgt: "Metabotropic glutamate receptor 6 (Rattus norvegicus)"
  pEC50: 5.17
- Compound: "N[C@@H](CCP(=O)(O)/C=C/C(=O)O)C(=O)O"
  Tgt: "Metabotropic glutamate receptor 6 (Rattus norvegicus)"
  pEC50: 5.96
- Compound: "N[C@@H](CCP(=O)(O)CC(Cl)C(=O)O)C(=O)O (some centres not stated)"
  Tgt: "Metabotropic glutamate receptor 6 (Rattus norvegicus)"
  pEC50: 5.05
- Compound: "N[C@@H](CCP(=O)(O)CC(CC(=O)O)C(=O)O)C(=O)O (some centres not stated)"
  Tgt: "Metabotropic glutamate receptor 6 (Rattus norvegicus)"
  pEC50: 4.38
- Compound: "N[C@@H](CCP(=O)(O)CCCC(=O)O)C(=O)O"
  Tgt: "Metabotropic glutamate receptor 6 (Rattus norvegicus)"
  pEC50: 4.36

Respond only with pEC50 recorded for N[C@@H](CCP(=O)(O)O)C(=O)O 6.00

---

Target: Metabotropic glutamate receptor 7 (Rattus norvegicus)
Sequence (P35400 whole entry): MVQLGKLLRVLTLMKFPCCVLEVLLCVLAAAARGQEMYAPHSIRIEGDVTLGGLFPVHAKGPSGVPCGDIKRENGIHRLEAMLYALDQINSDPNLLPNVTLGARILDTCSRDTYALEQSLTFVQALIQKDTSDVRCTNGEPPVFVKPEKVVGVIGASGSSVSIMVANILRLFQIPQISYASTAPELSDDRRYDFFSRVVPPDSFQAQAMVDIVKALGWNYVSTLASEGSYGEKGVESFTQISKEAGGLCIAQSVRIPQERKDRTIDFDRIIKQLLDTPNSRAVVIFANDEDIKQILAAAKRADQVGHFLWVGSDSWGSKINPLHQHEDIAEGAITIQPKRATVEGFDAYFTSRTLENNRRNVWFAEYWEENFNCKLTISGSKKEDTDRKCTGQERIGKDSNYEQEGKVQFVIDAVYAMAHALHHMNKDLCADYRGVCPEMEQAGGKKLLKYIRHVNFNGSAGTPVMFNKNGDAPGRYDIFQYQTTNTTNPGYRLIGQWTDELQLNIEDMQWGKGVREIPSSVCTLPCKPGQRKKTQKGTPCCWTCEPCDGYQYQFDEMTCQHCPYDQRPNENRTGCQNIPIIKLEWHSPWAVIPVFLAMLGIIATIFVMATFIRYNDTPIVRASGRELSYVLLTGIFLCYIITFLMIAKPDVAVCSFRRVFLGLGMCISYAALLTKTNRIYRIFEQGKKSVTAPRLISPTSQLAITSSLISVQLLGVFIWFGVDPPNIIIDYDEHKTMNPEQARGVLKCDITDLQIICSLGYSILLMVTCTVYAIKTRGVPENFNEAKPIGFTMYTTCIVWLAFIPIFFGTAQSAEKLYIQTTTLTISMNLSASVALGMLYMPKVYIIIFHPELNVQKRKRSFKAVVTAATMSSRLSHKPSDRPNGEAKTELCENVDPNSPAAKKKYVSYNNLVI
Assay: Agonist activity at rat mGlu7 receptor expressed in HEK293 cells co-transfected with G-protein alpha and EAAC1 assessed as increase in intracellular inositol phosphate accumulation […] by scintillation counting
Format: functional, cell-based
Measured Endpoint: EC50 (µM)
API: value field is a number in µM; no unit string.

- Smiles Representation: "N[C@@]1(C(=O)O)C[C@H](C(=O)O)[C@H](C(=O)O)C1"
  EC50 / µM: 280

Would you kindly look at the next entry?
Would you please give the reported EC50 of N[C@@H](CCP(=O)(O)O)C(=O)O with Metabotropic glutamate receptor 7 (Rattus norvegicus)? 306

---

Molecular target: Metabotropic glutamate receptor 2 (Rattus norvegicus) (UniProt P31421)
Sequence (P31421 19-872 limits assumed): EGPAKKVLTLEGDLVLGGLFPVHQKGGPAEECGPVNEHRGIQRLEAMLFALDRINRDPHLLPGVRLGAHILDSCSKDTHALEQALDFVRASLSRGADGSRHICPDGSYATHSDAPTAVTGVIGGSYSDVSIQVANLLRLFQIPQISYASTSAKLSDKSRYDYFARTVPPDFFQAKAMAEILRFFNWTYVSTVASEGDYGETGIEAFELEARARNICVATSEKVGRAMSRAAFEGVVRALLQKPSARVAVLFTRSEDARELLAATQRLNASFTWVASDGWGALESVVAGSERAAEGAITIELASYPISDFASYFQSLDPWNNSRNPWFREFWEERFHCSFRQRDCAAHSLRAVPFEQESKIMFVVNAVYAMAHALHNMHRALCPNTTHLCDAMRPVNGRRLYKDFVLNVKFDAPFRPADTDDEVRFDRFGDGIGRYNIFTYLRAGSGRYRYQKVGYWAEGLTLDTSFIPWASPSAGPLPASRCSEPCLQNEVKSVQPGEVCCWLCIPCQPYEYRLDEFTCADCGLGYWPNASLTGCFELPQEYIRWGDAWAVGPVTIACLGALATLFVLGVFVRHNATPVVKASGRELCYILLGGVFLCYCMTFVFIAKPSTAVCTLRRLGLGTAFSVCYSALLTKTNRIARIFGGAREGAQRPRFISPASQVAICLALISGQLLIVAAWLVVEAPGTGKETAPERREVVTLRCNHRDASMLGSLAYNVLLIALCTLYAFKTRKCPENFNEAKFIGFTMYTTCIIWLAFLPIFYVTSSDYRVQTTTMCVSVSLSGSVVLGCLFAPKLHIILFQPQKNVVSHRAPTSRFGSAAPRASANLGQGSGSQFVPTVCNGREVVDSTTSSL
Experiment: Agonist activity at rat mGlu2 receptor expressed in HEK293 cells assessed as increase in intracellular calcium level at 100 uM after 1 hr by fluorescence microplate reader
Assay type: functional, cell-based
The source made the active and inactive calls. The rule behind the calls is not given here.
Write down one outcome, taken from t = active, f = inactive

Check out these entries, answers already filled in.
- Molecule: "N[C@@H](CCP(=O)(O)CC(=O)O)C(=O)O"
  Class: "t"
- Molecule: "N[C@@H](CCP(=O)(O)CC(CC(=O)O)C(=O)O)C(=O)O (stereo partly specified)"
  Class: "f"
- Molecule: "N[C@@H](CCP(=O)(O)/C=C/C(=O)O)C(=O)O"
  Class: "t"
- Molecule: "N[C@@H](CCP(=O)(O)CC(Cl)C(=O)O)C(=O)O (stereo partly specified)"
  Class: "t"
- Molecule: "N[C@@H](CCP(=O)(O)CCCC(=O)O)C(=O)O"
  Class: "f"

Given NC(CCP(=O)(O)CCC(=O)O)C(=O)O (racemic) , state the outcome it received in this test. t

The measurements presented in this section are drawn from ChEMBL document CHEMBL1156339.
